test_system: T. cruzi DHFR (tcDHFR) (Trypanosoma cruzi)
measurement_notes: biochemical
run_parameters: Table 17; pIC50 = -log10 IC50; at least three replicates; read-out: tcDHFR pIC50-DHFR primary assay (converted)
Recorded measurements of IC50, one per entry
measurement_kind: IC50 (nM)

compound="Nc1ncc(N2CCN(c3cccc(C4CCCOC4)c3)CC2)c(N)n1 (stereo not shown)" experimental_value=28.8
compound=Nc1ncc(N2CCN(c3ccc(C4CCOCC4)cc3)CC2)c(N)n1 experimental_value=20.2
compound=Nc1ncc(C2CCN(c3cccc(C4CCOCC4)c3)CC2)c(N)n1 experimental_value=95.5
compound=COc1ncc(-c2cccc(N3CCC(c4cnc(N)nc4N)CC3)c2)cn1 experimental_value=7.76
compound=Nc1ncc(N2CCN(c3ccc(Cl)cn3)CC2)c(N)n1 experimental_value=16.2
compound=Nc1ncc(N2CCN(c3cccc(OC4CCOCC4)c3)CC2)c(N)n1 experimental_value=27.2
compound=Nc1ncc(N2CCN(c3cc(Cl)ccc3F)CC2)c(N)n1 experimental_value=170
compound=Nc1ncc(N2CCN(c3ccc(Cl)nc3)CC2)c(N)n1 experimental_value=6.31
compound="Nc1ncc(N2CCN(c3cccc(OC4CCOC4)c3)CC2)c(N)n1 (stereo not shown)" experimental_value=25.4
compound=Nc1ncc(N2CCN(c3ccnc(C(F)(F)F)c3)CC2)c(N)n1 experimental_value=6.24
compound=Nc1ncc(N2CCN(c3cc(Cl)ccn3)CC2)c(N)n1 experimental_value=22.9
compound=Nc1ncc(N2CCN(c3cccc(Cl)n3)CC2)c(N)n1 experimental_value=10.8
compound=COc1ccc(N2CCN(c3cnc(N)nc3N)CC2)cn1 experimental_value=14
compound=N#Cc1ccc(N2CCN(c3cnc(N)nc3N)CC2)cn1 experimental_value=8.04
compound=Nc1ncc(N2CCN(c3ccc(F)c(Cl)c3)CC2)c(N)n1 experimental_value=16.6
compound=Nc1ncc(C2CCN(c3ccc(C(F)(F)F)nc3)CC2)c(N)n1 experimental_value=8.41
compound=Nc1ncc(C2=CCN(c3cccc(C4=CCOCC4)c3)CC2)c(N)n1 experimental_value=47.9
compound=Nc1ncc(N2CCN(c3ccccc3C3CCOCC3)CC2)c(N)n1 experimental_value=741
compound=Nc1ncc(N2CCN(c3ccc(C4=CCOCC4)cc3)CC2)c(N)n1 experimental_value=2.82

====

test_system: T. gondii DHFR (tgDHFR) (Toxoplasma gondii)
measurement_notes: biochemical
Class boundaries, taken from values of IC50, are as follows: low = under 7 nM, medium = from 7 nM up to 30 nM, high = 30 nM and over

compound=CCc1nc(N)nc(N)c1N1CCN(c2ccccn2)CC1 class=low
compound=CN(C)c1ncc(-c2cccc(N3CCN(c4cnc(N)nc4N)CC3)c2)cn1 class=medium
compound=CCCc1nc(N)nc(N)c1N1CCN(c2ccccn2)CC1 class=medium
compound=CCCc1nc(N)nc(N)c1N1CCN(c2ncc(C)cn2)CC1 class=high
compound="CC1CN(c2cccc(-c3ccccc3)c2)CCN1c1cnc(N)nc1N (stereo not shown)" class=high
compound=CCc1nc(N)nc(N)c1N1CCN(c2cccc(C)c2)CC1 class=low
compound=CCCc1nc(N)nc(N)c1N1CCN(c2ccccc2)CC1 class=medium
compound=CCc1nc(N)nc(N)c1N1CCN(c2ccc(C)cn2)CC1 class=low
compound=Nc1nc(N)c(N2CCN(c3ccccc3)CC2)c(CC2CC2)n1 class=medium
compound=Nc1ncc(N2CCN(c3cccc(-c4cccc(F)c4)c3)CC2)c(N)n1 class=medium
compound=Nc1ncc(N2CCN(c3cccc(-c4cnc(Cl)nc4)c3)CC2)c(N)n1 class=low
compound=Cc1ncc(-c2cccc(C3CCN(c4cnc(N)nc4N)CC3)c2)cn1 class=low
compound=Nc1ncc(N2CCN(c3cccc(N4CCOCC4)c3)CC2)c(N)n1 class=high
compound=CCc1nc(N)nc(N)c1N1CCN(c2ccc(C)cc2)CC1 class=medium
compound=Nc1ncc(N2CCC(c3ccccc3)CC2)c(N)n1 class=high
compound="CC1CN(c2cnc(N)nc2N)CCN1c1cccc(-c2ccccc2)c1 (stereo not shown)" class=low

====

test_system: T. gondii DHFR (tgDHFR) (Toxoplasma gondii)
measurement_notes: biochemical
run_parameters: Table 16; hDHFR IC50/tgDHFR IC50
Decide using Average DHFR selectivity (h/tg) alone. Strictly below 40: class 1. Equal to or above 40: class 0.

compound="Nc1ncc(C2CCN(c3cnc(C(F)(F)F)nc3)CC2)c(N)n1 [Compound 187]" class="class 1"
compound="C[C@@H]1CN(c2cnc(N)nc2N)CCN1c1cccc(C2=CCOCC2)c1 [Compound 194]" class="class 1"
compound="Cc1ccc(-c2cc(N3CCN(c4cnc(N)nc4N)CC3)ccn2)cc1 [Compound 167]" class="class 1"
compound="COc1ncc(-c2ccnc(N3CCN(c4cnc(N)nc4N)CC3)c2)cn1 [Compound 165]" class="class 0"
compound="COc1ncc(-c2cccc(N3CC=C(c4cnc(N)nc4N)CC3)c2)cn1 [Compound 182]" class="class 1"

====

test_system: hDHFR (Homo sapiens)
Sequence (P00374 whole entry): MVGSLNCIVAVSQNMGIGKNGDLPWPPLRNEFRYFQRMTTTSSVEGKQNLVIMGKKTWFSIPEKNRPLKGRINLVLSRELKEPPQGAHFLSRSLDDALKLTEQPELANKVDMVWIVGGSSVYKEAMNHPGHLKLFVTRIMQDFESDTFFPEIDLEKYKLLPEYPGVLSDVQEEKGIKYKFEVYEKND
Format: biochemical
pIC50: −log10 of the molar value.
measurement_kind: pIC50

compound="Cc1nc(N)nc(N)c1N1CCN(c2cccc(Cl)c2)CC1 [Compound 46]" measurement_kind=pIC50 experimental_value=6.62
compound="Nc1ncc(N2CCN(c3ccc(C(F)(F)F)cc3)CC2)c(N)n1 [Compound 115]" measurement_kind=pIC50 experimental_value=6.09

====

test_system: T. cruzi DHFR (tcDHFR) (Trypanosoma cruzi, UniProt Q27793)
Sequence (Q27793 whole entry): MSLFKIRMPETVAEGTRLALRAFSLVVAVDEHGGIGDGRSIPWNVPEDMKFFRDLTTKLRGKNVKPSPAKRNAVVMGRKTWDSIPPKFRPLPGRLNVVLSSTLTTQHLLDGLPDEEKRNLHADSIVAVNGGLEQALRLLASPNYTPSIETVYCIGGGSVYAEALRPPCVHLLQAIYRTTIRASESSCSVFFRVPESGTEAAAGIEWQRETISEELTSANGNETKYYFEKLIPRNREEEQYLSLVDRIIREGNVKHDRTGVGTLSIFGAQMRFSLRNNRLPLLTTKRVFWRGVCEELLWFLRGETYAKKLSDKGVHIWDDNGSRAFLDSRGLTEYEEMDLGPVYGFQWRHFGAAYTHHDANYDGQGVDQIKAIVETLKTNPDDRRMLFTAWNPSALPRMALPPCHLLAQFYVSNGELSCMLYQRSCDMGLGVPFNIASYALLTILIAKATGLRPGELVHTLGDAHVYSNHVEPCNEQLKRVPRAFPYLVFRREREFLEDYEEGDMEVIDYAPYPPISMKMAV
measurement_notes: biochemical
run_parameters: Table 17; pIC50 = -log10 IC50; at least three replicates; read-out: tcDHFR pIC50-DHFR primary assay (converted)
measurement_kind: log10(IC50) (log10 of the value in nM)

compound="Nc1ncc(N2CCN(c3ccnc(-c4ccccc4)c3)CC2)c(N)n1 [Compound 166]" measurement_kind=log10(IC50) experimental_value=0.89
compound="Nc1ncc(N2CCN(c3ccc(C(F)(F)F)cn3)CC2)c(N)n1 [Compound 140]" measurement_kind=log10(IC50) experimental_value=0.85
compound="Nc1ncc(N2CCN(c3ccccc3C3=CCOCC3)CC2)c(N)n1 [Compound 193]" measurement_kind=log10(IC50) experimental_value=1.87
compound="Nc1ncc(C2CCN(c3cnc(C(F)(F)F)nc3)CC2)c(N)n1 [Compound 187]" measurement_kind=log10(IC50) experimental_value=1.82
compound="N#Cc1ncc(-c2cccc(N3CCN(c4cnc(N)nc4N)CC3)c2)cn1 [Compound 168]" measurement_kind=log10(IC50) experimental_value=0.88

====

test_system: T. gondii DHFR (tgDHFR) (Toxoplasma gondii, UniProt Q07422)
Sequence (Q07422 1-610): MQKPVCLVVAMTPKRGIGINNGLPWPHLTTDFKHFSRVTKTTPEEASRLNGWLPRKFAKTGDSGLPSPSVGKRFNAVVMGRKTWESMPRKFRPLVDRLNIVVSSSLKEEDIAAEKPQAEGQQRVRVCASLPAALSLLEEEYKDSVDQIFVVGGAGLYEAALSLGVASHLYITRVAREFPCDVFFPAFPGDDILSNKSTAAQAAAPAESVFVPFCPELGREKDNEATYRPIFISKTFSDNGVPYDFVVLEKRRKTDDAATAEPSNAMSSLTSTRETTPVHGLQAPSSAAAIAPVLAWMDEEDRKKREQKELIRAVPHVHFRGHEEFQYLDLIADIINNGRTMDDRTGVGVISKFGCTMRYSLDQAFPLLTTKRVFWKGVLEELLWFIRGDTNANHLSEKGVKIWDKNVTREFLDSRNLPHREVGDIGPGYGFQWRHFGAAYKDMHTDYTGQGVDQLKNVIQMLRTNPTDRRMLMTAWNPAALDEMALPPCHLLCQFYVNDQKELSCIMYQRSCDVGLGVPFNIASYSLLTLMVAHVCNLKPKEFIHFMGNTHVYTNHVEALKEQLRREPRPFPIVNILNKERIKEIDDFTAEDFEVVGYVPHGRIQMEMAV
measurement_notes: biochemical
run_parameters: Table 16; hDHFR IC50/tgDHFR IC50
measurement_kind: Average DHFR selectivity (h/tg)

molecule="COc1ncc(-c2cc(F)cc(N3CCN(c4cnc(N)nc4N)CC3)c2)cn1 [Compound 161]" measurement_kind="Average DHFR selectivity (h/tg)" experimental_value=51.27
molecule="COc1ncc(-c2cccc(N3CCN(c4cnc(N)nc4N)CC3)c2F)cn1 [Compound 159]" measurement_kind="Average DHFR selectivity (h/tg)" experimental_value=80.32
molecule="COc1ncc(-c2ccc(F)c(N3CCN(c4cnc(N)nc4N)CC3)c2)cn1 [Compound 164]" measurement_kind="Average DHFR selectivity (h/tg)" experimental_value=65.26
molecule="Nc1ncc(N2CCN(c3ccnc(C(F)(F)F)c3)CC2)c(N)n1 [Compound 139]" measurement_kind="Average DHFR selectivity (h/tg)" experimental_value=2.03
molecule="COc1ncc(-c2ccccc2N2CCN(c3cnc(N)nc3N)CC2)cn1 [Compound 157]" measurement_kind="Average DHFR selectivity (h/tg)" experimental_value=5.86
molecule="Nc1ncc(N2CCN(c3ccccc3C3CCOCC3)CC2)c(N)n1 [Compound 175]" measurement_kind="Average DHFR selectivity (h/tg)" experimental_value=4.39
molecule="COc1ncc(-c2cccc(N3CCC(c4cnc(N)nc4N)CC3)c2)cn1 [Compound 183]" measurement_kind="Average DHFR selectivity (h/tg)" experimental_value=146.21
molecule="Nc1ncc(N2CCN(c3cccc(OC4CCOC4)c3)CC2)c(N)n1 (stereo not drawn) [Compound 152]" measurement_kind="Average DHFR selectivity (h/tg)" experimental_value=47.37
molecule="Nc1ncc(N2CCN(c3cccc(OC4CCOCC4)c3)CC2)c(N)n1 [Compound 151]" measurement_kind="Average DHFR selectivity (h/tg)" experimental_value=50.16
